This collection of values is drawn from patent US20240018502A1.

# Target Under Test: plasma purified human complement protein C3 (human) (UniProt P01024)
# Sequence (P01024 23-667, chain 1 of 2): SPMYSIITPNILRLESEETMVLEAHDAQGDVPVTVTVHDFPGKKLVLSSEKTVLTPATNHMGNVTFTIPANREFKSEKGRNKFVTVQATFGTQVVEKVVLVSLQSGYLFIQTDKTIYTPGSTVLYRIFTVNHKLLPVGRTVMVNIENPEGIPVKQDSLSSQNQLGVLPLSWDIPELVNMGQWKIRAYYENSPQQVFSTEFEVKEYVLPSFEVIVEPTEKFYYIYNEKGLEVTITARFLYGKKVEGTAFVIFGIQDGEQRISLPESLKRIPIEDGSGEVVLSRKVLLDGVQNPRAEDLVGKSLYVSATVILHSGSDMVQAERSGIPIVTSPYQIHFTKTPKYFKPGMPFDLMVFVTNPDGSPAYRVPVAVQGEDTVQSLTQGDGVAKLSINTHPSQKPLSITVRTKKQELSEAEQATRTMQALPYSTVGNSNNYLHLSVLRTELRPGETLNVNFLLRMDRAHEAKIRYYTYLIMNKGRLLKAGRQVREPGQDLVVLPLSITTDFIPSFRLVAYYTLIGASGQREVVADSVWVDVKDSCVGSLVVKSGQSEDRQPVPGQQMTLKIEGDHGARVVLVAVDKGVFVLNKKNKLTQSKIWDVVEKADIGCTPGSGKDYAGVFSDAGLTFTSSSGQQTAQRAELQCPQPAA
# Sequence (P01024 672-1663, chain 2 of 2): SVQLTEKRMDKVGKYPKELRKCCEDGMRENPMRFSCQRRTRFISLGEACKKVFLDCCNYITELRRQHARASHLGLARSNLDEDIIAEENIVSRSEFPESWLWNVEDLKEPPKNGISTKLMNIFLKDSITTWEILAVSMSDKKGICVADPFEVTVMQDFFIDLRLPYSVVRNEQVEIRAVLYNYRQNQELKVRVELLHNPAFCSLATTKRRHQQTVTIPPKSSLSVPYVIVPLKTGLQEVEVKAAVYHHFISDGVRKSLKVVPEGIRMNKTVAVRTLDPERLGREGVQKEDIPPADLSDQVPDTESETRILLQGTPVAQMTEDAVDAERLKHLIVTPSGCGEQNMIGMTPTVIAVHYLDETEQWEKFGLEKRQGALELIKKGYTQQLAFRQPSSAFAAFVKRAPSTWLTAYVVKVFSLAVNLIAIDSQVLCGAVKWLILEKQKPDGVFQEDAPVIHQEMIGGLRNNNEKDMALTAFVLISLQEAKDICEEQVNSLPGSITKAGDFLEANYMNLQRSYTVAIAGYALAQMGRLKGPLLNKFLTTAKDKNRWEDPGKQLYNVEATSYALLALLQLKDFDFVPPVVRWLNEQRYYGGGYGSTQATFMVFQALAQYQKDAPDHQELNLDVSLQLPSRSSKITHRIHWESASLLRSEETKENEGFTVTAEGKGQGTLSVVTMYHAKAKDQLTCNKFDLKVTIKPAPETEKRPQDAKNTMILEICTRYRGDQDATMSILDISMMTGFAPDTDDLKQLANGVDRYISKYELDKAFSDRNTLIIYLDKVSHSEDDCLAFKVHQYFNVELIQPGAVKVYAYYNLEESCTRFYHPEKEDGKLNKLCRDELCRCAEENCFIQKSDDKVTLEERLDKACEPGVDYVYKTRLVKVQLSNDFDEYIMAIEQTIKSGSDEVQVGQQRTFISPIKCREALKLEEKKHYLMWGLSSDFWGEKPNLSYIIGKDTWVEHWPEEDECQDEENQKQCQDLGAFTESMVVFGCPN
# Protocol: cell-based or functional assay
Test Readout: log10(EC50 of hC3 cleavage) (log10 of the value in nM)
Please keep in mind that the values are log10 of EC50 of hC3 cleavage expressed in nM.

INSERT INTO assay_data (binder, result) VALUES
  ('MTSP-1 D96_F97delinsWYY/T98P/F99L/C122S (enzyme) VVGGTDADEGEWPWQVSLHALGQGHICGASLISPNWLVSAAHCYIDDRGFRYSDPTQWTAFLGLHDQSQRSAPGVQERRLKRIISHPFFNWYYPLDYDIALLELEKPAEYSSMVRPISLPDASHVFPAGKAIWVTGWGHTQYGGTGALILQKGEIRVINQTTCENLLPQQITPRMMCVGFLSGGVDSCQGDSGGPLSSVEADGRIFQAGVVSWGDGCAQRNKPGVYTRLPLFRDWIKENTGV', 1.35),
  ('MTSP-1 H40R/I41H/Y60gH/F97D/F99L/C122S/Q175M/Q192G/D217I/K224L (enzyme) VVGGTDADEGEWPWQVSLHALGQGRHCGASLISPNWLVSAAHCYIDDRGFRHSDPTQWTAFLGLHDQSQRSAPGVQERRLKRIISHPFFNDDTLDYDIALLELEKPAEYSSMVRPISLPDASHVFPAGKAIWVTGWGHTQYGGTGALILQKGEIRVINQTTCENLLPQMITPRMMCVGFLSGGVDSCGGDSGGPLSSVEADGRIFQAGVVSWGIGCAQRNLPGVYTRLPLFRDWIKENTGV', 0.57);

I have 2 binders here; please give me log10(EC50 of hC3 cleavage) for each one.
1. MTSP-1 H40K/I41M/F97D/F99L/C122S/G151N/Q175M/Q192D/D217N/K224R (enzyme) VVGGTDADEGEWPWQVSLHALGQGKMCGASLISPNWLVSAAHCYIDDRGFRYSDPTQWTAFLGLHDQSQRSAPGVQERRLKRIISHPFFNDDTLDYDIALLELEKPAEYSSMVRPISLPDASHVFPAGKAIWVTGWGHTQYGGTNALILQKGEIRVINQTTCENLLPQMITPRMMCVGFLSGGVDSCDGDSGGPLSSVEADGRIFQAGVVSWGNGCAQRNRPGVYTRLPLFRDWIKENTGV
2. MTSP-1 H40K/I41M/Y60gG/F97D/F99L/C122S/G151N/Q175R/Q192R/D217V/K224S (enzyme) VVGGTDADEGEWPWQVSLHALGQGKMCGASLISPNWLVSAAHCYIDDRGFRGSDPTQWTAFLGLHDQSQRSAPGVQERRLKRIISHPFFNDDTLDYDIALLELEKPAEYSSMVRPISLPDASHVFPAGKAIWVTGWGHTQYGGTNALILQKGEIRVINQTTCENLLPQRITPRMMCVGFLSGGVDSCRGDSGGPLSSVEADGRIFQAGVVSWGVGCAQRNSPGVYTRLPLFRDWIKENTGV

A.
0.99
2.71
